testedSystem: C-CBL (46-435) (Homo sapiens, UniProt P22681)
Construct: N-terminal biotinylated WT CBL-B (36-427) and C-CBL (46-435) were captured on a streptavidin (SA) coated sensor chip
protocol: Surface Plasmon Resonance (SPR) assay, binding affinity and kinetics, C-CBL
assayContext: SPR at 10° C., biotinylated C-CBL (46-435) on streptavidin chip; geometric mean; read-out: C-CBL SPR Kd (nM) GMean
Sorting guide: entries reporting Kd beneath 200 nM go in the class 1 pile, the rest go in the class 0 pile.

Would you kindly verify if Kd of Cn1cnnc1CC1(c2cccc(-c3n[nH]c4c(CN5CCC(F)(F)C5)nc(C(F)(F)F)cc34)c2)COC1 is strictly less than 200 nM?
class 1

Lab log: compare recorded Kd with 200 nM; is it strictly lower for CC(c1nc(C(F)(F)F)cc2c(-c3cccc(C4(Cc5nncn5C)COC4)c3)n[nH]c12)N1CCCCC1 (single isomer, unassigned) [Example C21] ?
class 1

Consider the compound CC(c1nc(C(F)(F)F)cc2c(-c3cccc(C4(Cc5nncn5C)COC4)c3)n[nH]c12)N1CCC[C@H](C)C1 (single isomer, unassigned) [Example C20] . Is its Kd strictly less than 200 nM?
class 1

Find out if reported Kd for CNc1nc(C(F)(F)F)cc2c(-c3cccc(C4(Cc5nncn5C)COC4)c3)n[nH]c12 is less than 200 nM
class 1

Say whether its Kd is strictly beneath 200 nM. Entry: CC(CN)c1nc(C(F)(F)F)cc2c(-c3cccc([C@H](c4nncn4C)C4CCC4)c3)n[nH]c12 (single isomer, unassigned) [Example K14]
class 0

Kd strictly < 200 nM for this compound? CC(=O)NCC(C)c1nc(C(F)(F)F)cc2c(-c3cccc([C@H](c4nncn4C)C4CCC4)c3)n[nH]c12 (single isomer, unassigned) [Example M5]
class 0

Answer whether the compound C[C@@H](N[C@H]1C[C@H](O)C1)c1nc(C(F)(F)F)cc2c(-c3cccc([C@H](c4nncn4C)C4CCC4)c3)n[nH]c12 (single isomer, unassigned) has Kd strictly less than 200 nM
class 1

Below 200 nM on Kd? Entry Cn1cnnc1[C@@H](c1cccc(-c2n[nH]c3cnc(C(F)(F)F)cc23)c1)C1CCC1
class 0

Please let me know if Cn1cnnc1CC1(c2cccc(-c3n[nH]c4c(CNC5CCC5)nc(C(F)(F)F)cc34)c2)COC1 shows Kd below 200 nM.
class 1

In plain terms, does CC(C)NCc1nc(C(F)(F)F)cc2c(-c3cccc(C4(Cc5nncn5C)COC4)c3)n[nH]c12 come in under 200 nM for Kd?
class 0

Please indicate whether the reported Kd of C[C@H](c1nc(C(F)(F)F)cc2c(-c3cccc(C4(Cc5nncn5C)COC4)c3)n[nH]c12)N1CCNCC1 (single isomer, unassigned) is strictly below 200 nM.
class 1

Hi there! Is Kd for Cn1cnnc1[C@@H](c1cccc(-c2n[nH]c3c(CN4CC[C@@H](F)C4)nc(C(F)(F)F)cc23)c1)C1CCC1 below 200 nM, do you know?
class 1

* * *

testedSystem: CBL-B (Homo sapiens)
Construct: endogenous in cells; host or cells: Jurkat HiBit-IL2 reporter cells, C-CBL knocked out by CRISPR
Sequence (Q13191 whole entry): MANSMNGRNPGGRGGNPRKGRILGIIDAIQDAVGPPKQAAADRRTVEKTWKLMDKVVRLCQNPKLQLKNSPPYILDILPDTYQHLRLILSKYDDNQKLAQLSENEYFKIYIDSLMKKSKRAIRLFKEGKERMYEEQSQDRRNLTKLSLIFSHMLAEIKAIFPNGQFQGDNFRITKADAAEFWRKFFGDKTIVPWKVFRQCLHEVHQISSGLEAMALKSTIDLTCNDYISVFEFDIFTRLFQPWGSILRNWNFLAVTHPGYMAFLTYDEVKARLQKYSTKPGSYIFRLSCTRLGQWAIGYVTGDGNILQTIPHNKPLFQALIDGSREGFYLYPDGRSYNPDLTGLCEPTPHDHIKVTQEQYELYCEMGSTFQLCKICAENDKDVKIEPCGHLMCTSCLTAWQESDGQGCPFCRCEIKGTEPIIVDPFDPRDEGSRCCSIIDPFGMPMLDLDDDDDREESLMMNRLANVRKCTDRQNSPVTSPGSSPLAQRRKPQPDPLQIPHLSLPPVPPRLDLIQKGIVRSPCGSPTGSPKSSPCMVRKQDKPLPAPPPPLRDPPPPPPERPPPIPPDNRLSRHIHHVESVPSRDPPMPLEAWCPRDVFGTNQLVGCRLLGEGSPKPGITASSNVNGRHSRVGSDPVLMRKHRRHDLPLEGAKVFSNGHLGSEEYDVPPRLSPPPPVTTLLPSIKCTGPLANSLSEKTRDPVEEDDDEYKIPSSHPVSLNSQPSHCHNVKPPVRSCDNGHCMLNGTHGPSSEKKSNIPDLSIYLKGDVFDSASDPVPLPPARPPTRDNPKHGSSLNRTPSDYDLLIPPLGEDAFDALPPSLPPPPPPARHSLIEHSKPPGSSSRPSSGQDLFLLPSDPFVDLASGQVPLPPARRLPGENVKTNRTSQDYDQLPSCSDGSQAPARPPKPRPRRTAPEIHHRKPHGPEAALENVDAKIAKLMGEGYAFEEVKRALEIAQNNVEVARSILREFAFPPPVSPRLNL
protocol: Jurkat HiBit-IL2 assay (c-CBL KO), reporter cell line expressing CBL-B only
Assay type: cell-based
assayContext: C-CBL KO (expressing CBL-B only), geometric mean, Table 16b (further repetition), read-out: C-CBL KO EC50 (nM) GMean
Exercise: state measured EC50 for each of the molecules provided.
The answer consists of two parts: a number and, after it, its unit.

Suppose we examine the molecule C[C@@H](N[C@@H]1CC[C@@H]1O)c1nc(C(F)(F)F)cc2c(-c3cccc([C@H](c4nncn4C)C4CCC4)c3)n[nH]c12 (single isomer, unassigned) ; what EC50 value has been reported?
36 nM

Look up EC50 for this molecule: C[C@H](NC(C)(C)CO)c1nc(C(F)(F)F)cc2c(-c3cccc([C@H](c4nncn4C)C4CCC4)c3)n[nH]c12 (single isomer, unassigned)
43 nM

I'd like to know its EC50. The molecule in question is C[C@H](N[C@H]1C[C@@H](O)C1)c1nc(C(F)(F)F)cc2c(-c3cccc([C@H](c4nncn4C)C4CCC4)c3)n[nH]c12 (single isomer, unassigned)
35 nM

// query EC50 value for entry C[C@H](N[C@H]1CCC[C@@H]1O)c1nc(C(F)(F)F)cc2c(-c3cccc([C@H](c4nncn4C)C4CCC4)c3)n[nH]c12 (single isomer, unassigned)
11 nM

Give the measured EC50 of CC(NC(=O)[C@@H](C)O)c1nc(C(F)(F)F)cc2c(-c3cccc([C@H](c4nncn4C)C4CCC4)c3)n[nH]c12 (single isomer, unassigned) .
62 nM

* * *

testedSystem: WT CBL-B (36-427) (Homo sapiens)
Construct: N-terminal biotinylated WT CBL-B (36-427) and C-CBL (46-435) were captured on a streptavidin (SA) coated sensor chip
Sequence (Q13191 36-427): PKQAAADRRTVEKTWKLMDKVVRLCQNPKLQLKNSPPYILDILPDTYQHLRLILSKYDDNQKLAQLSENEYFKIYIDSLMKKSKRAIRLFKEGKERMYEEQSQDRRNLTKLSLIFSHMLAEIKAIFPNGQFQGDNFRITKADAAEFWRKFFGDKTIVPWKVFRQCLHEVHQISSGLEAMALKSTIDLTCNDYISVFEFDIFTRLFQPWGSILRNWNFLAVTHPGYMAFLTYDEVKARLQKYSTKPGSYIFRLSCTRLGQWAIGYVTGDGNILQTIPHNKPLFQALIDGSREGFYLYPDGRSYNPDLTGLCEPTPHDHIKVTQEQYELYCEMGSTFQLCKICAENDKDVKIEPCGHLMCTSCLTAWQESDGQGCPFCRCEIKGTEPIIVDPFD
protocol: Surface Plasmon Resonance (SPR) assay, binding affinity and kinetics, CBL-B
assayContext: SPR at 10° C., biotinylated WT CBL-B (36-427) on streptavidin chip; geometric mean; read-out: CBL-B SPR Kd (nM) GMean
Field: Kd. Provide a value for each of the compounds that follow.
Entry rule: numbers only, all in nM.

Report Kd for CC(C)NCc1nc(C(F)(F)F)cc2c(-c3cccc([C@H](c4nncn4C)C4CCC4)c3)n[nH]c12 [Example D80] please.
9.5

Sample C[C@H](c1nc(C(F)(F)F)cc2c(-c3cccc(C4(Cc5nncn5C)COC4)c3)n[nH]c12)N1CCC(F)(F)C1 (single isomer, unassigned) [Example D6] — what was its Kd?
1.8

# lookup: Kd of C[C@@H](c1nc(C(F)(F)F)cc2c(-c3cccc(C4(Cc5nncn5C)COC4)c3)n[nH]c12)N(C)C (single isomer, unassigned) [Example D39]
14.9

Which value of Kd has been reported for C[C@H](O)CN[C@@H](C)c1nc(C(F)(F)F)cc2c(-c3cccc([C@H](c4nncn4C)C4CCC4)c3)n[nH]c12 (single isomer, unassigned) [Example D19] in the records?
1.6

GET /values?readout=Kd&item= CC(C)NC(C)c1nc(C(F)(F)F)cc2c(-c3cccc(C4(Cc5nncn5C)COC4)c3)n[nH]c12 (single isomer, unassigned) [Example C80]
1.7

I would be grateful if you could share the reported Kd for Cn1cnnc1[C@@H](c1cccc(-c2n[nH]c3c(CN4CCOCC4)nc(C(F)(F)F)cc23)c1)C1CCC1 [Example D96] .
5.5

* * *

Provide the recorded Kd for the entries that follow.
testedSystem: C-CBL (46-435) (Homo sapiens, UniProt P22681)
Construct: N-terminal biotinylated WT CBL-B (36-427) and C-CBL (46-435) were captured on a streptavidin (SA) coated sensor chip
Sequence (P22681 46-435): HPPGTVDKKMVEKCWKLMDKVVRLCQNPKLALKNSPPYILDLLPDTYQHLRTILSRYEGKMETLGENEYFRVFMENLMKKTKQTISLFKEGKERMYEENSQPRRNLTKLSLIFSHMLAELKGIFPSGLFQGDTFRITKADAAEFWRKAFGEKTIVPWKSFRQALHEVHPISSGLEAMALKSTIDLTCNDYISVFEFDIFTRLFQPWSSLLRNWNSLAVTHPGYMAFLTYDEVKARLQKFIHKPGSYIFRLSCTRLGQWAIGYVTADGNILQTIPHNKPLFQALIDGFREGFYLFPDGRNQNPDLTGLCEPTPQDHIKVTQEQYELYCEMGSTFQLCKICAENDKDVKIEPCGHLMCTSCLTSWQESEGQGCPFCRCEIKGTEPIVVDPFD
protocol: Surface Plasmon Resonance (SPR) assay, binding affinity and kinetics, C-CBL
assayContext: SPR at 10° C., biotinylated C-CBL (46-435) on streptavidin chip; geometric mean; read-out: C-CBL SPR Kd (nM) GMean
I only need the number, in nM, no unit after it.

What does the record list as Kd for Cc1cc2c(-c3cccc([C@H](c4nncn4C)C4CCC4)c3)n[nH]c2cn1 ?
882

Fill blank: measured Kd of the molecule CN1CCC(Oc2nc(C(F)(F)F)cc3c(-c4cccc(C5(Cc6nncn6C)COC5)c4)n[nH]c23)C1 (stereo in doubt) is ____.
37.6

Looking for the measured Kd of C[C@@H]1CCCN([C@@H](C)c2nc(C(F)(F)F)cc3c(-c4cccc(C5(Cc6nncn6C)COC5)c4)n[nH]c23)C1 (single isomer, unassigned) , can you help?
51.2

So what does the record say about Kd for C[C@@H]1CN(Cc2nc(C(F)(F)F)cc3c(-c4cccc([C@H](c5nncn5C)C5CCC5)c4)n[nH]c23)CCO1 ?
83.6

Requested read-out: Kd. Entry: C[C@@H](c1nc(C(F)(F)F)cc2c(-c3cccc(C4(Cc5nncn5C)COC4)c3)n[nH]c12)N1C[C@H](F)[C@@H](F)C1 (single isomer, unassigned)
36

Fill blank: measured Kd of the molecule Cn1cnnc1[C@@H](c1cccc(-c2n[nH]c3c(CN[C@@H]4CCC(F)(F)C4)nc(C(F)(F)F)cc23)c1)C1CCC1 is ____.
203

Where do these numbers come from? They come from patent US20260125375A1.
